Molecular target: furin, P09958;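 note: purified furin at 1:10 enzyme:substrate in 50 mM HEPES pH 7.5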
Sequence (P09958 whole entry): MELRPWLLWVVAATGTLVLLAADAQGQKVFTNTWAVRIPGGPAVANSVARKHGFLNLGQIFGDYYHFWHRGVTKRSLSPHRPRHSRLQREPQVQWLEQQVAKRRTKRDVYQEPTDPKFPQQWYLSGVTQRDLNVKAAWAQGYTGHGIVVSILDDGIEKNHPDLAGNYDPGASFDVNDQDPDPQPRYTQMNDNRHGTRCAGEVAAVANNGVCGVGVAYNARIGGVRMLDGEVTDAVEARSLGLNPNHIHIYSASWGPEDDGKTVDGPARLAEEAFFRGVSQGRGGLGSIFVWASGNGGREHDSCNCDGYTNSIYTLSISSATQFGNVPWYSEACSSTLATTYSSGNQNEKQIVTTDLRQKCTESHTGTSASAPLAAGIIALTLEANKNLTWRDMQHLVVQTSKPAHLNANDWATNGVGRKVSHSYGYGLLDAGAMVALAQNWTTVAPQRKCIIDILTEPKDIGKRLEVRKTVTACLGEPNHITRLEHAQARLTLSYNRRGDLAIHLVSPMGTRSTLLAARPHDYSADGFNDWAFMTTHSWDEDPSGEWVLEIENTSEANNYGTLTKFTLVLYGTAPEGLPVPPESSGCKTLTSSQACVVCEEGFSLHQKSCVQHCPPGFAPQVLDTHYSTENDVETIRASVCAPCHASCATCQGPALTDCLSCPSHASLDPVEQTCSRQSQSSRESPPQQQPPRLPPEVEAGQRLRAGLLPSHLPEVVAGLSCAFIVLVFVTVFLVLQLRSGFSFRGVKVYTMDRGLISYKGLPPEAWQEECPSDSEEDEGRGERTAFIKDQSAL
Test: furin cleavage Z-score vs untreated control; higher = more cleavage, active = 3.5 or more, inactive = 1 or less, 8 variable residues between constant flanks
Settings: 15 min
This is one part of the list. The true hit rate is not given.
Entry note: the call must match one of yes (active), no (inactive)

Known results for sequences:
[
  {
    "chain.sequence": "CAGEPGDPDLAGNASASA [HC1357]",
    "discrete.label": "no"
  },
  {
    "chain.sequence": "CAEPDVAVLTAGNASASA [HC1243]",
    "discrete.label": "no"
  },
  {
    "chain.sequence": "CAENLPYLVAAGNASASA [HC951]",
    "discrete.label": "no"
  },
  {
    "chain.sequence": "CARPRRILNTAGNASASA [FS-2441]",
    "discrete.label": "no"
  },
  {
    "chain.sequence": "CARKRRAVLTAGNASASA [FS-2971]",
    "discrete.label": "yes"
  },
  {
    "chain.sequence": "CAINALSNSLAGNASASA [HC1382]",
    "discrete.label": "no"
  }
]

Then this sequence:
# outcome recorded in this test, key = CAKKRTVVLTAGNASASA [HC1325] no

Values compiled from the supplement of paper PMC3545927.
